Test system: BT-549 breast
Assay: NCI tumour cell line growth inhibition, 48 h
Quick reference: GI50 of the listed items.

[[record]]
compound = "O=C1c2ccccc2-c2c1c1ccccc1c(=O)n2CCCN1CCN(CCCn2c3c(c4ccccc4c2=O)C(=O)c2ccccc2-3)CC1"
result = "> 75.2 µM"


query: # query: GI50 | item COc1cccc(C2C3=C(COC3=O)N(CCO)c3cc4c(cc32)OCCO4)c1 (stereo not drawn) | system: BT-549 breast
result: 0.255 µM

query: Subsequent entry: c1ccc(-c2nn(-c3ccccc3)[n+](-c3cccc4ccccc34)n2)cc1
result: 1.85 µM

query: Subsequent entry: CC1OC(OC2CC(O)C3(CO)C4C(O)CC5(C)C(C6=CC(=O)OC6)CCC5(O)C4CCC3(O)C2)C(O)C(O)C1O (stereo not drawn)
result: < 0.0129 µM

query: Subsequent entry: COC(=O)[C@H](CC(C)C)NC(=O)NC(=O)NC(=O)CI
result: 5.32 µM

query: Subsequent entry: Clc1ccc(-c2nn3ncccc3c2-c2ccnc(Nc3ccccc3)n2)cc1
result: 10.7 µM

* * *

Test system: HOP-92 NSCLC
Assay: NCI tumour cell line growth inhibition, 48 h
MEASURED PARAMETER: GI50

[[record]]
compound = "COc1ccc(-c2nn(-c3cccc(NC(=O)Nc4cc(C(F)(F)F)cc(C(F)(F)F)c4)c3)cc2-c2ccncc2)cc1Cl"
result = "0.17 µM"

[[record]]
compound = "CCOc1ccc(/C=C/[N+](=O)[O-])cc1"
result = "12.9 µM"

[[record]]
compound = "CN1CCN(Cc2ccc(NC(=O)c3ccc(C#N)c(C#Cc4cnc(N)c5ncccc45)c3)cc2C(F)(F)F)CC1"
result = "12.2 µM"


query: Field request: GI50 | item: C=C1CCC2C3(C)COC(c4ccc(SC)cc4)OC3CCC2(C)C1C/C=C1/C(=O)OCC1O (stereo not given)
result: 5.19 µM

query: Subsequent entry: NCC1OC(OC2C(CO)OC(OC3C(O)C(N)CC(N)C3OC3OC(CO)C(O)C(O)C3N)C2O)C(N)C(O)C1O (stereo not given)
result: > 50 mg/L

* * *

System: LOX IMVI melanoma
Experiment: NCI tumour cell line growth inhibition, 48 h
Where a SMILES comes first, the peptide text is derived from it. [ ]: non-standard residue; d: D form. The star is where a group is joined. ξ: configuration not given here. NMeF = CN[C@@H](Cc1ccccc1)C(=O)O; ξNMeV = CNC(C(=O)O)C(C)C; Boc = CC(C)(C)OC(=O)*; OBn = c1ccc(CO*)cc1
Quick reference: TGI of the listed items.

query: Field request: TGI | item: CC(C)C(C(=O)N1CCC[C@@H]1C(=O)OCc1ccccc1)N(C)C(=O)C(C(C)C)N(C)C(=O)[C@H](Cc1ccccc1)N(C)C(=O)[C@H](NC(=O)OC(C)(C)C)C(C)C (stereo partly specified) (Boc-[dV][NMeF][ξNMeV][ξNMeV][dP]-OBn)
result: > 100 µM

query: Subsequent entry: CC(=O)OC[C@]12CC[C@@H]([C@@H](C)C(N)=O)[C@@H]1[C@H]1CC[C@@H]3[C@@]4(C)CC[C@H](OC(C)=O)C(C)(C)[C@@H]4CC[C@@]3(C)[C@]1(C)CC2
result: 24.4 µM

query: Subsequent entry: CC1C/C(=N\N(C)C)C(C#N)(C#N)C1(C#N)C#N (stereo unspecified)
result: 19.7 µM

query: Subsequent entry: N#CC(C#N)=CSc1ccccc1
result: 26 µM

query: Subsequent entry: COc1ccc(C(C2C(=O)N(C)C(=O)N(C)C2=O)C(F)(F)C(=O)N(C)C)cc1 (stereo unspecified)
result: > 100 µM

query: Subsequent entry: COC(=O)[C@@]1(C)CC[C@]2(C)CC[C@]3(C)C4=CC=C5C(=CC(=O)C(O)=C5C)[C@]4(C)CC[C@@]3(C)[C@@H]2C1
result: 0.325 µM
